Molecular target: α7–GlyR mutant chimeric channels (Homo sapiens, UniProt P36544, Q79A)
Sequence (P36544 23-230 Q79A): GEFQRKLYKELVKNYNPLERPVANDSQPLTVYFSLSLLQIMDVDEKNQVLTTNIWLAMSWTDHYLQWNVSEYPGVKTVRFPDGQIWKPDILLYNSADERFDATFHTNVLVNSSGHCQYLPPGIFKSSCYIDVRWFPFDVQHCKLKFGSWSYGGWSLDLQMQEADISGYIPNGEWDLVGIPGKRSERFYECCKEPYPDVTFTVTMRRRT
Sequence (P23415 248-457 partner): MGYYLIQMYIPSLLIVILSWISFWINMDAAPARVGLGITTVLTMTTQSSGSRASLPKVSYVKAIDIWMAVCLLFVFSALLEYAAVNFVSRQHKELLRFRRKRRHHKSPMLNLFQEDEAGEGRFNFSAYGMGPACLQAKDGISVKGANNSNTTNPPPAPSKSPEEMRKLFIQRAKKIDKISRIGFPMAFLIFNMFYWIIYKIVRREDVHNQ
Experiment: Membrane potential assay screen, mutant α7–GlyR chimeric channels
Assay type: cell-based
Conditions: EC50 at α7-GlyR Q79A, Avg, sheet 1d
pEC50: −log10 of the molar value.
Measured Metric: pEC50

Inquiry: Which measured pEC50 value corresponds to COC(=O)[C@H]1[C@@H](OC(=O)c2ccccc2)C[C@@H]2CC[C@H]1N2C ?
Reply text: < 4.52

----------
Target: α7–GlyR mutant chimeric channels (Homo sapiens, UniProt P36544, P216V)
Assay: Membrane potential assay screen, mutant α7–GlyR chimeric channels
Assay type: cell-based
Conditions: EC50 at α7 GlyR P216V, Avg, sheet 1d
pEC50: −log10 of the molar value.
Measured Metric: pEC50

Inquiry: Which measured pEC50 value corresponds to COC(=O)[C@H]1[C@@H](OC(=O)c2ccccc2)C[C@@H]2CC[C@H]1N2C [cocaine] ?
Reply text: < 4.52

Recorded values, source paper PMC12527922.
